Sourced from patent US20130330346A1

Entries and their IC50
Biological target: T1, Human CXCR2 (human, UniProt P25025 1-360)
T1 construct: Some cell lines carry an N-terminal 3xHA tag; also called hCXCR2; huCXCR2
T1 sequence: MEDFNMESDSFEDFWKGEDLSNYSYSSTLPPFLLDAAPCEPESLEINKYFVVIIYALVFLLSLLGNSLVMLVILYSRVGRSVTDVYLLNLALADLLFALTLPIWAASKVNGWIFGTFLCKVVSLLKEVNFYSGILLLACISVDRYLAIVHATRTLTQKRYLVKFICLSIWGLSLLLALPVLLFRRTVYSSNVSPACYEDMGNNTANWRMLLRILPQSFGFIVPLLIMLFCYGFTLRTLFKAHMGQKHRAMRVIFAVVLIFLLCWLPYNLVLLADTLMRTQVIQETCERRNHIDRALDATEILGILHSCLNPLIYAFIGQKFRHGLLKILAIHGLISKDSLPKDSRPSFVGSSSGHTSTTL
Assay: FACS competition vs 3 nM FMAT-Blue Gro-α
Express your answer in nM, writing the number without its unit.

BINDER	IC50 [nM]
2B2 (VHH, Tested as periplasmic extract (pAX50) and as purified His6-tagged protein (pAX100); also called 002B02; not shown: C-terminal c-myc tag and His6 tag coded by the vector) VHH: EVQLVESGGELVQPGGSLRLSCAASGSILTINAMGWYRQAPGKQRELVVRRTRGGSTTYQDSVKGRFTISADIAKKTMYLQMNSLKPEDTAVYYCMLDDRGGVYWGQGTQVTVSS	2.07

Input line: Query (binder): 97A9 (VHH, Tested as periplasmic extract (pAX50) and as purified His6-tagged protein (pAX100); also called 097A09; not shown: C-terminal c-myc tag and His6 tag coded by the vector) VHH: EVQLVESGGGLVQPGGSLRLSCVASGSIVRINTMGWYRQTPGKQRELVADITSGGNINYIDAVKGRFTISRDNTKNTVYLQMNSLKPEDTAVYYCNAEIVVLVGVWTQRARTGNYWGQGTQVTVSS ; field requested: IC50
Output line: 17.2

Input line: What does the record list as IC50 for 54B12 (VHH, Tested as periplasmic extract (pAX50) and as purified His6-tagged protein (pAX100); also called 054B12; not shown: C-terminal c-myc tag and His6 tag coded by the vector) VHH: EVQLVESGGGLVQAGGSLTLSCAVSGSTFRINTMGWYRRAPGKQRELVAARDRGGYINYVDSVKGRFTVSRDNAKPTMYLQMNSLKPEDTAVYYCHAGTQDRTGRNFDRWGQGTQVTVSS ?
Output line: 0.857

Input line: Bench note: what IC50 did 163E3 (VHH, Tested as periplasmic extract (pAX50) and as purified His6-tagged protein (pAX100); also called 163E03; not shown: C-terminal c-myc tag and His6 tag coded by the vector) VHH: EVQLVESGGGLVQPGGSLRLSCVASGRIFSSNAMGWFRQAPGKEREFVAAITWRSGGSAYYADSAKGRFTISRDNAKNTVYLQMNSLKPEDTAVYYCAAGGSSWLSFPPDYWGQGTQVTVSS show?
Output line: 8.96
